Source: ChEMBL document CHEMBL3044603

Listed here are compounds together with their documented pIC50.
- tested.on: 1-deoxy-D-xylulose-5-phosphate synthase, chloroplastic (Arabidopsis thaliana, UniProt Q38854)
- Sequence (Q38854 whole entry): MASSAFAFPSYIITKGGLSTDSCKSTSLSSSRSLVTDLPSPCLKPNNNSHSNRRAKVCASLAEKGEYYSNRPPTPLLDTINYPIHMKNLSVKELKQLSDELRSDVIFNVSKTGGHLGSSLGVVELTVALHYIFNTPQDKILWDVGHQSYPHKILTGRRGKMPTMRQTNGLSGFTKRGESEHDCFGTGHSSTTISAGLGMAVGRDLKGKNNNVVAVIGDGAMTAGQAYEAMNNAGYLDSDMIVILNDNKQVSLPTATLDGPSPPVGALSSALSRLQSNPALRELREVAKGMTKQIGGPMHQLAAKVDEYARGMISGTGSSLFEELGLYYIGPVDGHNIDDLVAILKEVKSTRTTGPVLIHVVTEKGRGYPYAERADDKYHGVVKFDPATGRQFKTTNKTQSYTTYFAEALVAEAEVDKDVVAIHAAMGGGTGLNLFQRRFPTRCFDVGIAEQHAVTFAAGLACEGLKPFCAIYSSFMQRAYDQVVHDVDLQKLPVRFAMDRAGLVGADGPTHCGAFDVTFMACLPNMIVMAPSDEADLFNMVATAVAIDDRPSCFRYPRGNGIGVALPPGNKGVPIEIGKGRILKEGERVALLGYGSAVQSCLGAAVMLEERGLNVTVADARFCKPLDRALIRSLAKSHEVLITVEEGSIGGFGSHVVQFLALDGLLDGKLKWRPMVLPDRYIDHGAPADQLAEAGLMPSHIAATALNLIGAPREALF
Lab note — pIC50 values are minus log10 of concentrations in M.

See these solved cases before continuing.
CCOc1ccc(-c2onc(C(F)(F)F)c2-c2ccc(OC)cc2)c(O)c1	4.21
COc1ccc(/C=N/Nc2nc3ccccc3[nH]2)cc1OCc1ccccc1	4.31
O=C(O)c1ccc(-c2ccc(/C=N/Nc3nc4ccccc4s3)o2)cc1	4.48
CC1(C)C(=O)ON(Cc2ccccc2Cl)C1=O	7.10

Continue with the compound presented below.
May I ask what pIC50 has been recorded for COc1ccc(-c2onc(C(F)(F)F)c2-c2ccc(Br)cc2)c(O)c1 ?
4.49

---

- tested.on: 4-diphosphocytidyl-2-C-methyl-D-erythritol kinase, chloroplastic/chromoplastic (Solanum lycopersicum, UniProt P93841)
- Sequence (P93841 whole entry): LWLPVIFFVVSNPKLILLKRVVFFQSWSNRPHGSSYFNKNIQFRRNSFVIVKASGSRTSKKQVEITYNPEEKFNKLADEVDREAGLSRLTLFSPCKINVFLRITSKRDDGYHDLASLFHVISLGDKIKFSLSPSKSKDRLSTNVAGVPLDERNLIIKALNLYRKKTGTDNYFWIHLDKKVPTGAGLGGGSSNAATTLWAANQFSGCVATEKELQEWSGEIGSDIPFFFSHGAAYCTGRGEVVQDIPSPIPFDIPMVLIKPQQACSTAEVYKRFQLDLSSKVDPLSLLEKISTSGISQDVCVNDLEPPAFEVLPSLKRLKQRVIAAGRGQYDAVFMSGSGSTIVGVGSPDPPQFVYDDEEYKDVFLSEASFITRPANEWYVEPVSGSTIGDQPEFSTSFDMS
readout.kind: IC50 (µM)
Note: unit µM is implicit; provide only the numeric part.

NC1=N/C(=N\NC(=O)Cc2cccc3ccccc23)c2ccccc21	54

Now look at this one.
Item NC1=N/C(=N\NC(=O)c2cc(Cl)ccn2)c2ccc3ccccc3c21 has what recorded IC50?
7.2

---

- Test system: Lemna minor
- protocol.notes: Herbicidal activity against Lemna minor (common duckweed) assessed as decrease in chlorophyll fluorescence at 56 mg/l measured for 4 days by picture analysis relative to control
- Type: functional, organism-based
The source made the active and inactive calls. The calls are words filed in the database; no cut-off is given here.
Response enum: class 1 for active, class 0 for inactive

Some solved entries appear below for comparison.
O=C(O)c1ccc(-c2ccc(/C=N/Nc3nc4ccccc4s3)o2)cc1	class 0
Oc1c(Cc2ccccc2)c(Cl)nc2ncnn12	class 1
COc1ccc(/C=N/Nc2nc3ccccc3[nH]2)cc1OCc1ccccc1	class 0
COc1ccc(-c2onc(C(F)(F)F)c2-c2ccc(Br)cc2)c(O)c1	class 1

Per the assay record, what outcome was assigned to CCC1(C)Cc2c(sc3nc(SC)nc(O)c23)CS1 (stereo unspecified) ?
class 0

How about this compound: NC1=N/C(=N\NC(=O)c2cc(Cl)ccn2)c2ccc3ccccc3c21
class 1

Now consider NC1=N/C(=N\NC(=O)Cc2cccc3ccccc23)c2ccccc21 and answer again.
class 0

CCOc1ccc(-c2onc(C(F)(F)F)c2-c2ccc(OC)cc2)c(O)c1 , same question.
class 1

Next: COc1ccc2nc(NC(=O)COc3ccc(-c4ccccc4)cc3)sc2c1
class 0

Then this compound: COc1ccc2nc(NC(=O)c3cc(-c4ccccc4O)n[nH]3)sc2c1
class 0

Also need CC(C)Nc1nc(Nc2ccccc2)nc(Cl)c1-c1c(F)cccc1Cl , thanks.
class 0
